The measured values listed here are drawn from ChEMBL document CHEMBL1143451.

# measuredTarget: Mitogen-activated protein kinase 10 (Homo sapiens, UniProt P53779)
# Sequence (P53779 whole entry): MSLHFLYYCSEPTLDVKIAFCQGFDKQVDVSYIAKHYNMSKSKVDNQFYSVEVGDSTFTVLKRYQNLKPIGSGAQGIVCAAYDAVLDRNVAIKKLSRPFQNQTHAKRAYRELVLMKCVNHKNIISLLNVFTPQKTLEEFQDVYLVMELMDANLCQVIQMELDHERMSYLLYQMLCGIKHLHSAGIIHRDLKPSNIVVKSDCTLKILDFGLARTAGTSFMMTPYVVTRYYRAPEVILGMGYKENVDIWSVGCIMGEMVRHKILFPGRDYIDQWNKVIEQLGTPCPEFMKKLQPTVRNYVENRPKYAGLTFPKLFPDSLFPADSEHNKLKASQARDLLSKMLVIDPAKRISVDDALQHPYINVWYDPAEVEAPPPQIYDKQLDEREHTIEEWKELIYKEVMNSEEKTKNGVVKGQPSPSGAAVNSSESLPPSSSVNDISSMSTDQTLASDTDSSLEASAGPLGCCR
# protocolDescription: Inhibitory activity against c-Jun N-terminal kinase 3 at a concentration of 1.0 uM
Binarize IC50 at 60 nM; below is yes (1), at or above is no (0).

compound: CCCNc1nccc(-c2c(-c3ccc(F)cc3)nc3n2[C@H](COCc2ccc(OC)cc2)CC3)n1
category: yes (1)

compound: CCCNc1nccc(-c2c(-c3ccc(F)cc3)nc3n2[C@@H](CO)CC3)n1
category: yes (1)

compound: COc1ccc(COC[C@H]2CCc3nc(-c4ccc(F)cc4)c(-c4ccnc(N)n4)n32)cc1
category: no (0)

compound: CCCNc1nccc(-c2c(-c3ccc(F)cc3)nc3n2[C@@H](COCc2ccc(OC)cc2)CC3)n1
category: no (0)

compound: CCCNc1nccc(-c2c(-c3ccc(F)cc3)nc3n2[C@H](CO)CC3)n1
category: yes (1)

----------
# measuredTarget: Mitogen-activated protein kinase 14 (Homo sapiens)
# protocolDescription: Inhibitory concentration against p38 at a concentration of 1.0 uM
pIC50: −log10 of the molar value.

compound: [N-]=[N+]=Nc1cccc(-c2ncn(CCCNC(=O)c3ccc(I)cc3)c2-c2ccncc2)c1
measuredTarget: Mitogen-activated protein kinase 14 (Homo sapiens)
pIC50: 7.34

----------
# measuredTarget: Mitogen-activated protein kinase 14 (Homo sapiens, UniProt Q16539)
# Sequence (Q16539 whole entry): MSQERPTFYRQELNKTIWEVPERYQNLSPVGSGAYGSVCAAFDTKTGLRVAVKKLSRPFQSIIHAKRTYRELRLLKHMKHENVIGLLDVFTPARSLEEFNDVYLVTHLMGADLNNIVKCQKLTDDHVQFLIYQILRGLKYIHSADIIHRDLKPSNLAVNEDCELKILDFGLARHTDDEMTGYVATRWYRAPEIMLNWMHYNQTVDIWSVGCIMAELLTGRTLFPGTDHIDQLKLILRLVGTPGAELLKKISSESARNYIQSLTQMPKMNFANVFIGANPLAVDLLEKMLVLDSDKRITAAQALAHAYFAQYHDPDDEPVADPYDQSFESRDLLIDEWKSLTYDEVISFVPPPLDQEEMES
# protocolDescription: Inhibitory activity against p38 at a concentration of 1.0 uM
pIC50: −log10 of the molar value.
Listed next: entries and their corresponding pIC50.
measuredProperty: pIC50

compound: CCCNc1nccc(-c2c(-c3ccc(F)cc3)nc3n2[C@@H](CO)CC3)n1
measuredNumber: 7.51
--
compound: CCCNc1nccc(-c2c(-c3ccc(F)cc3)nc3n2[C@H](COCc2ccc(OC)cc2)CC3)n1
measuredNumber: 7.27
--
compound: COc1ccc(COC[C@@H]2CCc3nc(-c4ccc(F)cc4)c(-c4ccnc(N)n4)n32)cc1
measuredNumber: 6.53
--
compound: COc1ccc(COC[C@H]2CCc3nc(-c4ccc(F)cc4)c(-c4ccnc(N)n4)n32)cc1
measuredNumber: 6.94
--
compound: CCCNc1nccc(-c2c(-c3ccc(F)cc3)nc3n2[C@H](CO)CC3)n1
measuredNumber: 7.55
--
compound: CCCNc1nccc(-c2c(-c3ccc(F)cc3)nc3n2[C@@H](COCc2ccc(OC)cc2)CC3)n1
measuredNumber: 6.66
